- experimental_target: T1, human CD98 ECD (Homo sapiens, UniProt P08195)
- T1 construct: Human CD98 ECD with C-terminal His-tag
- T1 sequence (P08195 with tags, fused parts or gaps): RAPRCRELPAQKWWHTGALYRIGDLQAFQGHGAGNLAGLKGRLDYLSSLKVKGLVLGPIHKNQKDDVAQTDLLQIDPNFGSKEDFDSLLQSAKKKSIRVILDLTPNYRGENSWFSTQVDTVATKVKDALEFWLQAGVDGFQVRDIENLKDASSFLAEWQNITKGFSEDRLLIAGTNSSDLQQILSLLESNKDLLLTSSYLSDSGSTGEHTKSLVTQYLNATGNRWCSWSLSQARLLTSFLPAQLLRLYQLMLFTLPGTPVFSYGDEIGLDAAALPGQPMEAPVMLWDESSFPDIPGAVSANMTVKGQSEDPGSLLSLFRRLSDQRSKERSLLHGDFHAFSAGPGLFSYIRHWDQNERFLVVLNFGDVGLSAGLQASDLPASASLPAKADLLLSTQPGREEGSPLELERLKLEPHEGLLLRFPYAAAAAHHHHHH
- experiment_notes: Biacore surface plasmon resonance binding kinetics (anti-Fc capture)
- measurement_conditions: huCD98 ECD
measurement_kind: ka (M⁻¹ s⁻¹)
Report only the number, with the unit M⁻¹ s⁻¹ understood.

Query: Recall and state the measured ka for huAb105: "heavy chain variable sequence of huAb105 is provided in SEQ ID NO: 111"; "light chain variable sequence ... in SEQ ID NO: 112" (antibody, V domains shown) VH: EVQLVESGGGLVQPGGSLRLSCAASGFTFSDYTMAWVRQAPGKGLEWVATIIYSGRGTYYRDAVKGRFTISRDNAKNTLYLQMNSLRAEDTAVYYCARQSDHTYYYWGYFDYWGQGTMVTVSS VL: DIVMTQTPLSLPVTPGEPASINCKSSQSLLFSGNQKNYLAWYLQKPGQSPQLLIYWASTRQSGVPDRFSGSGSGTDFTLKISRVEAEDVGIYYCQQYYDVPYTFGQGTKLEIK .
Response: 140000

Query: Recall and state the measured ka for huAb15v1 (antibody, V domains shown) VH: EVQLVESGGGVVQPGRSLRLSCAASGFTFSDYTMAWVRQAPGKGLEWVATIIYSGRGTYYRDAVKGRFTISRDNSKSTLYLQMNSLRAEDTAVYYCARQSDHTYYYWGYFDYWGQGTMVTVSS VL: DIVMTQSPDSLAVSLGERATINCKSSQSLLFSGNQKNYLAWYQQKPGQSPKLLIYWASTRQSGVPDRFSGSGSGTDFTLTIRSLQAEDVAIYYCQQYYDVPYTFGQGTKLEIK .
Response: 53000
